- Tested on: Candida orthopsilosis
- experimentNotes: Antifungal activity against Candida orthopsilosis by microdilution AFST-EUCAST method
- Type: functional
- conditionInfo: Lodderomyces orthopsilosis
Field: log10 of MIC. Provide a value for each of the molecules that follow.
Log10 applied to MIC; unit prior to transform: µg/mL.

The molecule C[C@@H](c1nc(-c2ccc(C#N)cc2)cs1)[C@](O)(Cn1cncn1)c1ccc(F)cc1F showed log10 of MIC equal to -1.70

The molecule CCC(C)n1ncn(-c2ccc(N3CCN(c4ccc(OCC5COC(Cn6cncn6)(c6ccc(Cl)cc6Cl)O5)cc4)CC3)cc2)c1=O (stereo not given) showed log10 of MIC equal to -1.40

The molecule OC(Cn1cncn1)(Cn1cncn1)c1ccc(F)cc1F showed log10 of MIC equal to -0.30

The molecule C[C@@H]1[C@H](O)[C@@H](C)/C=C/C=C/C=C/C=C/C=C/C=C/C=C/[C@H](O[C@@H]2O[C@H](C)[C@@H](O)[C@H](N)[C@@H]2O)C[C@@H]2O[C@](O)(C[C@@H](O)C[C@@H](O)[C@H](O)CC[C@@H](O)C[C@@H](O)CC(=O)O[C@H]1C)C[C@H](O)[C@H]2C(=O)O showed log10 of MIC equal to -1.22

The molecule CC[C@H](C)C[C@H](C)CCCCCCCCC(=O)N[C@H]1C[C@@H](O)[C@@H](NCCN)NC(=O)[C@@H]2[C@@H](O)CCN2C(=O)[C@H]([C@H](O)CCN)NC(=O)[C@H]([C@H](O)[C@@H](O)c2ccc(O)cc2)NC(=O)[C@@H]2C[C@@H](O)CN2C(=O)[C@H]([C@@H](C)O)NC1=O showed log10 of MIC equal to -0.80

----------
Field: MIC. Provide a value for each of the molecules that follow.
- Tested on: Candida orthopsilosis
- experimentNotes: Antifungal activity against Candida orthopsilosis by microdilution AFST-EUCAST method
- Format: functional
- conditionInfo: Lodderomyces orthopsilosis
Numbered stars: 1 amine (or outer) side, 2 acyl side, 3 side chain; on linkers, the order of the positions; unused ones are H or OH. Bridge positions count the residues as written; N and C are the ends. Square brackets hold non-standard residues; d marks the D form. Peptide text beside a SMILES is read from it. * marks the point of attachment. hTyr(3S-OH,4S-OH,3'-OSO3H) = N[C@H](C(=O)O)[C@H](O)[C@@H](O)c1ccc(O)c(OS(=O)(=O)O)c1; pTerphenylCO(4''-OnC5H11) = CCCCCOc1ccc(-c2ccc(-c3ccc(C(=O)*)cc3)cc2)cc1; Orn(4R-OH,5R-OH) = O=C([C@H](C[C@@H](O)[C@@H](O)N[*:3])N[*:1])[*:2]; hTyr(3S-OH,4S-OH) = N[C@H](C(=O)O)[C@H](O)[C@@H](O)c1ccc(O)cc1; Pro(3S-OH,4S-Me) = C[C@H]1CN[C@H](C(=O)O)[C@H]1O; X1 = CCCCCOc1ccc(-c2cc(-c3ccc(C(=O)*)cc3)no2)cc1; Gln(3R-OH) = NC(=O)C[C@@H](O)[C@H](N)C(=O)O; Hyp = O=C(O)[C@@H]1C[C@@H](O)CN1

The molecule Nc1nc(=O)[nH]cc1F showed MIC equal to 0.12 µg/mL

The molecule C[C@@H](c1ncncc1F)[C@](O)(Cn1cncn1)c1ccc(F)cc1F showed MIC equal to 0.03 µg/mL

The molecule CCCCCOc1ccc(-c2cc(-c3ccc(C(=O)N[C@H]4C[C@@H](O)[C@@H](O)NC(=O)[C@@H]5[C@@H](O)[C@@H](C)CN5C(=O)[C@H]([C@H](O)CC(N)=O)NC(=O)[C@H]([C@H](O)[C@@H](O)c5ccc(O)c(OS(=O)(=O)O)c5)NC(=O)[C@@H]5C[C@@H](O)CN5C(=O)[C@H]([C@@H](C)O)NC4=O)cc3)no2)cc1 [MICAFUNGIN] (X1-[Orn(4R-OH,5R-OH)]T[Hyp][hTyr(3S-OH,4S-OH,3'-OSO3H)][Gln(3R-OH)][Pro(3S-OH,4S-Me)]; lactam 1-C) showed MIC equal to 0.25 µg/mL

The molecule CCCCCOc1ccc(-c2ccc(-c3ccc(C(=O)N[C@H]4C[C@@H](O)[C@@H](O)NC(=O)[C@@H]5[C@@H](O)[C@@H](C)CN5C(=O)[C@H]([C@@H](C)O)NC(=O)[C@H]([C@H](O)[C@@H](O)c5ccc(O)cc5)NC(=O)[C@@H]5C[C@@H](O)CN5C(=O)[C@H]([C@@H](C)O)NC4=O)cc3)cc2)cc1 [ANIDULAFUNGIN] ({pTerphenylCO(4''-OnC5H11)}-[Orn(4R-OH,5R-OH)]T[Hyp][hTyr(3S-OH,4S-OH)]T[Pro(3S-OH,4S-Me)]; lactam 1-C) showed MIC equal to 0.38 µg/mL

The molecule CC[C@@H]([C@H](C)O)n1ncn(-c2ccc(N3CCN(c4ccc(OC[C@@H]5CO[C@@](Cn6cncn6)(c6ccc(F)cc6F)C5)cc4)CC3)cc2)c1=O showed MIC equal to 0.03 µg/mL
